Biological target: T1, 4H883-bN
T1 chain: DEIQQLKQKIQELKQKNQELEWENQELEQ
Assay: two-hybrid library CCNG1;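 note: natural log of median RNA to DNA barcode read ratio; higher means stronger binding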
Please enter rule met where interaction score is greater than or equal to -0.9, and rule not met where it is lower.

>  <binder>
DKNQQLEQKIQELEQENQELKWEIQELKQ [4H3354-bN]

>  <category.label>
rule met

$$$$
>  <binder>
DEIQQLKQKIQELEQENQELKWKIQELEQ [4H797-bN]

>  <category.label>
rule not met

$$$$
>  <binder>
DEIQQLKQEIQELKQENQELKWKNQELEQ [4H607-bN]

>  <category.label>
rule met

$$$$
>  <binder>
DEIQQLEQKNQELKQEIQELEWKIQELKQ [4H454-bN]

>  <category.label>
rule met

$$$$
>  <binder>
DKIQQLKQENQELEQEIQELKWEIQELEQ [4H2697-bN]

>  <category.label>
rule met

$$$$

Form field: interaction score at least -0.9? Entry: DEIQQLKQEIQELEQKNQELEWKNQELKQ [4H568-bN]
rule met

Please indicate if the recorded interaction score for DEIQQLKQENQELEQKIQELKWKNQELEQ [4H687-bN] meets or exceeds -0.9.
rule met

Form field: interaction score at least -0.9? Entry: DKNQQLKQENQELKQEIQELEWKIQELKQ [4H3782-bN]
rule not met

Tell me whether interaction score is at least -0.9 here: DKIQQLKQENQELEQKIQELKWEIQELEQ [4H2729-bN]
rule not met

Entry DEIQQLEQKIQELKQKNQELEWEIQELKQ [4H370-bN] : is its interaction score no less than -0.9?
rule not met

Hello, I need to know if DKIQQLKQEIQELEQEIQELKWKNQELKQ [4H2576-bN] has measured interaction score not below -0.9. Thanks!
rule met

Dear colleague, could you confirm whether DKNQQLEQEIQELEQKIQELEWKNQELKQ [4H3112-bN] has interaction score at or above -0.9?
rule met

Kindly determine if interaction score recorded for DEIQQLKQKIQELKQKNQELEWENQELEQ [4H883-bN] is above or exactly -0.9.
rule not met

Is it the case that DKNQQLKQKNQELEQKIQELEWEIQELEQ [4H4001-bN] has interaction score reaching or exceeding -0.9?
rule met
